experiment: self-splicing fitness, log relative to wild type (ln ratio); higher = more splicing; Tetrahymena group I intron in knt gene, E. coli kanamycin selection, DiMSum; sequences stand for … in CUCUCU…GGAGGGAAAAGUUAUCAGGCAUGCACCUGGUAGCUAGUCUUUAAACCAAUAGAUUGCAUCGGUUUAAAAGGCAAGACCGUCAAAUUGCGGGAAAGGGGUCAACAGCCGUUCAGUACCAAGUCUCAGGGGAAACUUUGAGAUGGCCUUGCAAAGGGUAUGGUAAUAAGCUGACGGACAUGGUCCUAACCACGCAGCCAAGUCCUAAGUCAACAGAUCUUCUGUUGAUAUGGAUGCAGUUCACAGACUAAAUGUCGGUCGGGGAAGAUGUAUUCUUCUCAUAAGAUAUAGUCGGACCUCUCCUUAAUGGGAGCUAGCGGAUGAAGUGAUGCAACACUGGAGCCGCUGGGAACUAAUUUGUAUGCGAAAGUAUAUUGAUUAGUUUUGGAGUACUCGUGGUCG; conditions: 37 °C;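 also: selection with 25 µg/mL kanamycin versus none on LB agar overnight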
Values of self-splicing fitness (ln) greater than or equal to -1 map to MET; values below map to NOT MET.

Previously resolved entries follow.
• GAGCAGCAAUAUUACGGAAA = NOT MET
• GUGUAGCAAUAUUACGUUUG = NOT MET
• CUACAGCAAUAUUACGCGCC = NOT MET
• AAAGAGCAAUAUUACGGGGG = NOT MET
• UACUAGCAAUAUUACGCACU = MET
• CUAAAGCAAUAUUACGGGAA = NOT MET

Request: Hi, just wondering whether GGUAAGCAAUAUUACGGAAU shows self-splicing fitness (ln) of -1 or higher.
Response: NOT MET

Request: # iterate: UUGAAGCAAUAUUACGAUUA
Response: MET

Request: # iterate: UUCAAGCAAUAUUACGUGGA
Response: NOT MET

Request: # iterate: CCUCAGCAAUAUUACGCAUU
Response: NOT MET

Request: # iterate: GGCUAGCAAUAUUACGGUUU
Response: MET

Request: # iterate: CUGGAGCAAUAUUACGUCAG
Response: NOT MET
